# study target: T1, purified recombinant IFNAR-1 extracellular fragment (human, UniProt P17181 28-436)
# T1 construct: extracellular domain; also called soluble IFNAR-1; soluble IFNAR
# T1 sequence (looked up): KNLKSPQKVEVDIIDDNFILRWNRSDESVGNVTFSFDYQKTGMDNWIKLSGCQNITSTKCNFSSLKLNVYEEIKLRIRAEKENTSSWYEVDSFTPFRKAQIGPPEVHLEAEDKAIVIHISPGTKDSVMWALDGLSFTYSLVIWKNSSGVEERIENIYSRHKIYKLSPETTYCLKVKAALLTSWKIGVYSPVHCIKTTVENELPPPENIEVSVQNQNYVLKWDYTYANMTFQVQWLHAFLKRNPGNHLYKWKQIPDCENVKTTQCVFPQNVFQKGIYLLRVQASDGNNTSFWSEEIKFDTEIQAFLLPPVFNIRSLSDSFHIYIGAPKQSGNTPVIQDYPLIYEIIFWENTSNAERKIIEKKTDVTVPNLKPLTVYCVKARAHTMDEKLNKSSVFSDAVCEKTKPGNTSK
# assay name: Biacore, maximal association on IFNAR-1 relative to M3K1
Entries and their % activity relative to M3K1 values follow.
Record the value in %, omitting the unit from your answer.

Would you please look over these solved cases?
H3K1 (IgG4) (antibody, V domains shown, also called H3K1 standard; humanized anti-IFNAR-1 mAb H3K1) VH: EVQLVESGGGLVQPGGSLRLSCAFSGFTLSTSGMGIGWVRQAPGKGLEWVAHIWWDDDKYYNPSLKSRFTISRDTSKNTVYLQMNSLRAEDTAVYYCARNYYPYDAWFDYWGQGTLVTVS VL: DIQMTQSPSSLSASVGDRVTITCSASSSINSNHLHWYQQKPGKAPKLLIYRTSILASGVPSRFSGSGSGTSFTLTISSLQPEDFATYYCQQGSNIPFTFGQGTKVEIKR	138
M3-11 (X = V) heavy chain with K1 light chain (antibody, V domains shown, Position counted within VH CDR3; also called M3-11 V) VH: EVQLLESGGGLVQPGGSLRLSCAFSGFTLSTSGMGIGWVRQAPGKGLEWVAHIWWDDDKYYNPSLKSRFTISRDTSKNTVYLQMNSLRAEDTAVYYCARNYYPYDAWFDVWGQGTLVTVS VL: DIQMTQSPSSLSASVGDRVTITCSASSSINSNHLHWYQQKPGKAPKLLIYRTSILASGVPSRFSGSGSGTSFTLTISSLQPEDFATYYCQQGSNIPFTFGQGTKVEIK	108

Then this binder:
Just so you know, measured % activity relative to M3K1 for M3-11 (X = W) heavy chain with K1 light chain (antibody, V domains shown, Position counted within VH CDR3; also called M3-11 W) VH: EVQLLESGGGLVQPGGSLRLSCAFSGFTLSTSGMGIGWVRQAPGKGLEWVAHIWWDDDKYYNPSLKSRFTISRDTSKNTVYLQMNSLRAEDTAVYYCARNYYPYDAWFDWWGQGTLVTVS VL: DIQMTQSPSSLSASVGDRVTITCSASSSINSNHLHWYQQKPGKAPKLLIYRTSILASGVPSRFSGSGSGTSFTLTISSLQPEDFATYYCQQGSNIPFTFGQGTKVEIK came out at 70

Origin of values: patent US20050208041A1
